B1: CD69 (parent)
chain: FVAENSSLHPESGQENDATSPHFS

variants of: B1; assay: protein stability index of a GFP-peptide fusion (GPS, HEK-293T) (PSI 1-6); higher = more stable; conditions: c terminus: a fixed tail appended;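 note: lentivirally expressed fusions sorted by FACS into six bins by GFP to DsRed ratio, PSI derived from sequencing read proportions per bin multiplied by bin number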
Would you mind telling me the reported protein stability index of each entry?
Write the number on its own, no unit after it.

Q: Which protein stability index is listed for FVACNSSLHPESGQENDATSPHFS [E4C] ?
Ans: 1.93

Q: Which protein stability index is listed for FVAENSSLHPESGQENDATEPHFS [S20E] ?
Ans: 3.75

Q: Which protein stability index is listed for FVAEFSSLHPESGQENDATSPHFS [N5F] ?
Ans: 1.94

Q: Which protein stability index is listed for FVAENSSLHPESGQENGATSPHFS [D17G] ?
Ans: 2.65

Q: Which protein stability index is listed for FVAENSSLHPESGRENDATSPHFS [Q14R] ?
Ans: 2.76

Q: Which protein stability index is listed for FVAENSSAHPESGQENDATSPHFS [L8A] ?
Ans: 3.41

Q: Which protein stability index is listed for FVAENSSLHPESGQENDATVPHFS [S20V] ?
Ans: 2.68

Q: Which protein stability index is listed for FVAENSSLHPESGQEVDATSPHFS [N16V] ?
Ans: 3.13

Q: Which protein stability index is listed for FVAENSSLHPESGQENNATSPHFS [D17N] ?
Ans: 2.95

Q: Which protein stability index is listed for FVAQNSSLHPESGQENDATSPHFS [E4Q] ?
Ans: 3.31

Q: Which protein stability index is listed for FVAENSSLHPESGQENDASSPHFS [T19S] ?
Ans: 2.84

Q: Which protein stability index is listed for FVALNSSLHPESGQENDATSPHFS [E4L] ?
Ans: 2.9

Q: Which protein stability index is listed for FVAENSSLHPELGQENDATSPHFS [S12L] ?
Ans: 2.46

Q: Which protein stability index is listed for FVAENSSLSPESGQENDATSPHFS [H9S] ?
Ans: 3.32

Q: Which protein stability index is listed for FVAENSSLNPESGQENDATSPHFS [H9N] ?
Ans: 2.8

Q: Which protein stability index is listed for FVAENSSLHPESGQENSATSPHFS [D17S] ?
Ans: 2.73

Q: Which protein stability index is listed for FVAENSSLHPESGQEQDATSPHFS [N16Q] ?
Ans: 3.37

Q: Which protein stability index is listed for KVAENSSLHPESGQENDATSPHFS [F1K] ?
Ans: 5.78

Q: Which protein stability index is listed for FVAENSSLHPESGQENLATSPHFS [D17L] ?
Ans: 2.56

Q: Which protein stability index is listed for FVAENSSLHPESGQEPDATSPHFS [N16P] ?
Ans: 2.6

Q: Which protein stability index is listed for FVAENSSLHPESGQENHATSPHFS [D17H] ?
Ans: 2.97

Q: Which protein stability index is listed for FFAENSSLHPESGQENDATSPHFS [V2F] ?
Ans: 5.13
